Assay: Pharmacokinetic study of ATC161 in male ICR mice
Type: in vivo
Conditions: male, ICR, oral; mouse plasma; read-out: terminal elimination half-life (T1/2) (converted)
recordedMetric: half-life

Sure, the documented half-life for Fc1ccc(COc2cccc(CNCCOCCOCCNc3cccc(-c4cc(-c5ccc6c(c5)OCO6)n[nH]4)c3)c2)cc1 [ATC161] is 3.7 h

---

Assay: Pharmacokinetics of ATL compounds after oral administration in ICR male mice
Type: in vivo
Settings: mouse, plasma, 5 mg/kg oral, read-out: oral bioavailability, AUClast
recordedMetric: AUC(0-t) (µg·h/mL)
Note: unit µg·h/mL is implicit; provide only the numeric part.

Sure, the documented AUC(0-t) for OCCNC[C@@H](O)COc1ccc(OCc2ccc(F)cc2)c(OCc2ccc(F)cc2)c1 is 2.59

All figures here come from paper PMC10290391.
